The measured values listed here are drawn from patent USRE38333E1.

assay: Partition coefficient (Log PC); assay type: physicochemical
readout_type: Log PC pH 7.4
The response must contain the number and no unit.

{"compound": "CC(C)OC(=O)OCOP(=O)(CO[C@H](C)Cn1cnc2c(N)ncnc21)OCOC(=O)OC(C)C", "Log PC pH 7.4": 1.25}
{"compound": "CCOC(=O)OCOP(=O)(CO[C@H](C)Cn1cnc2c(N)ncnc21)OCOC(=O)OCC [Bis-EtCOM PMPA, Bis-ethyl Oxymethyl Carbonate of PMPA]", "Log PC pH 7.4": 0.6}
{"compound": "CCCCOC(=O)OCOP(=O)(CO[C@H](C)Cn1cnc2c(N)ncnc21)OCOC(=O)OCCCC [Bis-nBuCOM PMPA, Bis-n-butyl Oxymethyl Carbonate of PMPA]", "Log PC pH 7.4": 2.7}

Per the records, this compound ( `CC(C)COC(=O)OCOP(=O)(CO[C@H](C)Cn1cnc2c(N)ncnc21)OCOC(=O)OCC(C)C` ) has Log PC pH 7.4 equal to 2.0

Per the records, this compound ( `C[C@H](Cn1cnc2c(N)ncnc21)OCP(=O)(OCOC(=O)OC(C)(C)C)OCOC(=O)OC(C)(C)C` ) has Log PC pH 7.4 equal to 1.93
